# ASSAY NOTES: PSAC antagonists in infected red cells, primary screen, cell-based, P. falciparum Indochina, OD700, 18 h (AID 1157)
# CONDITION CONTEXT: P. falciparum Indochina infected erythrocytes, osmotic lysis OD700, 18 h; higher = more signal, called active from +8 up or from −8 down
Overview of reported z-score across a group of compounds:
Form field (numeric): enter value without unit.

CCOC(=O)CCN1C(=O)[C@H]2[C@H]3[C@H](O)[C@H](O)CC(=NNC(=O)OCC)[C@@H]3CC[C@H]2C1=O
-0.0634
CC(C)C(=O)N[C@@H]1CCCN1C(=O)C=Cc1ccccc1
-0.241

Give the reported value of z-score for this record: CCOC(=O)[C@H](Cc1ccccc1)NC(=O)CCC1CC(OC(=O)NCc2cccc3ccccc23)CC2(CCCC(COC(=O)NCCCN3CCCC3=O)O2)O1 (stereo not given in full)
-0.685

Give the reported value of z-score for this record: `CCCNC(=O)OC[C@H]1O[C@H](CCON=C(C)CCN2CCc3nc(-c4ccccc4)c(-c4ccccc4)cc3C2)C=C[C@@H]1Oc1ccc(OC)cc1`
0.441

---

# ASSAY NOTES: splicing luciferase reporter signal modulators, primary screen, spliceosome inhibition project, cell-based, HEK293, splice +/- reporter (AID 1101);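 further: HEK293 cells carrying a splicing-competent luciferase reporter gene; test concentration not given here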
# CONDITION CONTEXT: luminescence, 24 h, higher = more signal, called active from +8 up or from −8 down
I would appreciate it if you labelled entries Condition met when z-score is -0.2 or higher, otherwise Condition not met.

Record excerpt, results attached:
C[C@@H](ON=C1[C@H]2CCn3c(=O)n(-c4ccccc4)c(=O)n3[C@H]2[C@H](O)[C@@H]2O[C@H]12)c1cn([C@H](CO)Cc2ccccc2)nn1
Condition met
CC(C)C(=O)N[C@@H]1CCCN1C(=O)C=Cc1ccccc1
Condition met

API: above_or_equal(metric=z-score, cutoff=-0.2) for item `C[C@@H](c1ccccc1)N1C(=O)[C@H]2[C@H]3[C@H](O)[C@H](O)CC(=O)[C@@H]3CC[C@H]2C1=O`
Condition not met

API: above_or_equal(metric=z-score, cutoff=-0.2) for item `CO[C@@H]1C=CCC(=O)N2CCC[C@H]2C(=O)OC[C@H](C)C(=O)OC[C@H]1C`
Condition not met

API: above_or_equal(metric=z-score, cutoff=-0.2) for item `CO[C@H]1COC(=O)CC=C[C@@H](C)COC(=O)[C@@H](OCc2ccccc2)C=C[C@@H]1C`
Condition met

API: above_or_equal(metric=z-score, cutoff=-0.2) for item COC(=O)[C@H](C)NC(=O)CCC1CC(OC(=O)NCCc2ccc(F)cc2)CC2(CCCC(COC(=O)NCCCN3CCCC3=O)O2)O1 (stereo partly drawn)
Condition not met

API: above_or_equal(metric=z-score, cutoff=-0.2) for item `O=C1[C@H]2[C@H]3[C@H](O)[C@H](O)CC(=NOCc4ccccc4)[C@H]3CC[C@H]2C(=O)N1Cc1ccccc1`
Condition not met

API: above_or_equal(metric=z-score, cutoff=-0.2) for item CCOC(=O)[C@H](Cc1ccccc1)NC(=O)CCC1CC(OC(=O)NCc2cccc3ccccc23)CC2(CCCC(COC(=O)NCCCN3CCCC3=O)O2)O1 (stereo partly drawn)
Condition not met

---

Overview of reported composite z-score across a group of compounds:
# SYSTEM TESTED: Carbonic anhydrase 2 (Homo sapiens) (UniProt P00918)
# ASSAY NOTES: CAII small-molecule binders, profiling panel, biochemical, small-molecule microarray, Alexa647-labelled CAII (AID 1122)
# CONDITION CONTEXT: CAII-A647 binding fluorescence, higher = more signal

Examples with answers:
CCOC(=O)NN=C1C[C@@H](O)[C@@H](O)[C@@H]2[C@@H]3C(=O)N(Cc4ccccc4)C(=O)[C@@H]3CC[C@@H]12
-0.0916
CCCNC(=O)OC[C@H]1O[C@H](CCON=C(C)CCC(=O)OC[C@H]2O[C@H](C#Cc3ccccc3)C=C[C@@H]2Oc2ccc(C)cc2)C=C[C@@H]1Oc1ccc(OC)cc1
-0.29
C[C@@H](ON=C1[C@H]2CCn3c(=O)n(-c4ccccc4)c(=O)n3[C@H]2[C@H](O)[C@@H]2O[C@H]12)c1cn([C@H](CO)Cc2ccccc2)nn1
-0.0324

Send back Carbonic anhydrase 2 (Homo sapiens) (UniProt P00918) composite z-score of `O=C(NN=C1C[C@@H](O)[C@@H](O)[C@@H]2[C@@H]3C(=O)N(Cc4ccc5c(c4)OCO5)C(=O)[C@@H]3CC[C@H]12)OCc1ccccc1` only.
-0.612

Send back Carbonic anhydrase 2 (Homo sapiens) (UniProt P00918) composite z-score of `COc1ccc(COC(=O)NN=C2C[C@@H](O)[C@@H](O)[C@@H]3[C@@H]4C(=O)N(C(C)(C)C)C(=O)[C@@H]4CC[C@H]23)cc1` only.
0.633

Send back Carbonic anhydrase 2 (Homo sapiens) (UniProt P00918) composite z-score of `CCOC(=O)NN=C1C[C@@H](O)[C@@H](O)[C@@H]2[C@@H]3C(=O)N(Cc4ccc5c(c4)OCO5)C(=O)[C@@H]3CC[C@@H]12` only.
-0.158

Send back Carbonic anhydrase 2 (Homo sapiens) (UniProt P00918) composite z-score of `CC(C)=NO[C@@H](C)c1cc(-c2c(C)cc(C)cc2C)no1` only.
-0.223

Send back Carbonic anhydrase 2 (Homo sapiens) (UniProt P00918) composite z-score of `CCN1C(=O)[C@H]2[C@H]3[C@H](O)[C@H](O)CC(=NOC)[C@@H]3CC[C@H]2C1=O` only.
-0.317
